target: human tau oligomers (human, UniProt P10636-6 2-383, limits assumed); assay: cell-based or functional assay
Sequence (P10636 other isoform, or with tags, fused parts or gaps limits assumed): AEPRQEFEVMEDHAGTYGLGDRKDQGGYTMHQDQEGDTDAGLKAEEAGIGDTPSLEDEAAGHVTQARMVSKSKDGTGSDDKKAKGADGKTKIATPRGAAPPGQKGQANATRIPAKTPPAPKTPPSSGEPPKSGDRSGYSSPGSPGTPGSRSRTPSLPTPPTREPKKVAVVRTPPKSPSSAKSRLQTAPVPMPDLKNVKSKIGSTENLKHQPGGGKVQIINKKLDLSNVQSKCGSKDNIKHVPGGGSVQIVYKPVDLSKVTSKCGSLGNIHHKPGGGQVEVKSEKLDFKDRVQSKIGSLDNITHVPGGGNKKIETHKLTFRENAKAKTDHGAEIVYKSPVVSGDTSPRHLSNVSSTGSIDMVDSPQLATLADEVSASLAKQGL
Recorded metric: MTT viability of primary neurons with tau oligomers, antibody at 0.2 molar equivs

Problem: Look up MTT viability of primary neurons with tau oligomers, antibody at 0.2 molar equivs: mouse 9F5 antibody (antibody, mouse IgG1, V domains shown, also called m9F5; murine 9F5) VH: EVQLQQSGAELVRPGASVKLSCTASGFNIKDDYMNWVKQRPERGLEWIGWIDPENGDTEYASKFQGKATMTADTSSNTAYLQFSSLTSEDTAVYYCTTSNGWGQGTLVTVST VL: DIVMTQAAFSNPVTLGTSASISCRSSKSLLHSNGITYLYWYLQKPGQSPQLLIYQMSNLASGVPDRFSSSGSGTDFTLRISRVEAEDVGVYYCAQNLELPLTFGAGTKLELK
Result: 47.4 % of control

Where these numbers come from: patent US20220275067A1
